- assay.system: Ubiquitin carboxyl-terminal hydrolase 9X (Homo sapiens, UniProt Q93008)
- Sequence (Q93008 whole entry): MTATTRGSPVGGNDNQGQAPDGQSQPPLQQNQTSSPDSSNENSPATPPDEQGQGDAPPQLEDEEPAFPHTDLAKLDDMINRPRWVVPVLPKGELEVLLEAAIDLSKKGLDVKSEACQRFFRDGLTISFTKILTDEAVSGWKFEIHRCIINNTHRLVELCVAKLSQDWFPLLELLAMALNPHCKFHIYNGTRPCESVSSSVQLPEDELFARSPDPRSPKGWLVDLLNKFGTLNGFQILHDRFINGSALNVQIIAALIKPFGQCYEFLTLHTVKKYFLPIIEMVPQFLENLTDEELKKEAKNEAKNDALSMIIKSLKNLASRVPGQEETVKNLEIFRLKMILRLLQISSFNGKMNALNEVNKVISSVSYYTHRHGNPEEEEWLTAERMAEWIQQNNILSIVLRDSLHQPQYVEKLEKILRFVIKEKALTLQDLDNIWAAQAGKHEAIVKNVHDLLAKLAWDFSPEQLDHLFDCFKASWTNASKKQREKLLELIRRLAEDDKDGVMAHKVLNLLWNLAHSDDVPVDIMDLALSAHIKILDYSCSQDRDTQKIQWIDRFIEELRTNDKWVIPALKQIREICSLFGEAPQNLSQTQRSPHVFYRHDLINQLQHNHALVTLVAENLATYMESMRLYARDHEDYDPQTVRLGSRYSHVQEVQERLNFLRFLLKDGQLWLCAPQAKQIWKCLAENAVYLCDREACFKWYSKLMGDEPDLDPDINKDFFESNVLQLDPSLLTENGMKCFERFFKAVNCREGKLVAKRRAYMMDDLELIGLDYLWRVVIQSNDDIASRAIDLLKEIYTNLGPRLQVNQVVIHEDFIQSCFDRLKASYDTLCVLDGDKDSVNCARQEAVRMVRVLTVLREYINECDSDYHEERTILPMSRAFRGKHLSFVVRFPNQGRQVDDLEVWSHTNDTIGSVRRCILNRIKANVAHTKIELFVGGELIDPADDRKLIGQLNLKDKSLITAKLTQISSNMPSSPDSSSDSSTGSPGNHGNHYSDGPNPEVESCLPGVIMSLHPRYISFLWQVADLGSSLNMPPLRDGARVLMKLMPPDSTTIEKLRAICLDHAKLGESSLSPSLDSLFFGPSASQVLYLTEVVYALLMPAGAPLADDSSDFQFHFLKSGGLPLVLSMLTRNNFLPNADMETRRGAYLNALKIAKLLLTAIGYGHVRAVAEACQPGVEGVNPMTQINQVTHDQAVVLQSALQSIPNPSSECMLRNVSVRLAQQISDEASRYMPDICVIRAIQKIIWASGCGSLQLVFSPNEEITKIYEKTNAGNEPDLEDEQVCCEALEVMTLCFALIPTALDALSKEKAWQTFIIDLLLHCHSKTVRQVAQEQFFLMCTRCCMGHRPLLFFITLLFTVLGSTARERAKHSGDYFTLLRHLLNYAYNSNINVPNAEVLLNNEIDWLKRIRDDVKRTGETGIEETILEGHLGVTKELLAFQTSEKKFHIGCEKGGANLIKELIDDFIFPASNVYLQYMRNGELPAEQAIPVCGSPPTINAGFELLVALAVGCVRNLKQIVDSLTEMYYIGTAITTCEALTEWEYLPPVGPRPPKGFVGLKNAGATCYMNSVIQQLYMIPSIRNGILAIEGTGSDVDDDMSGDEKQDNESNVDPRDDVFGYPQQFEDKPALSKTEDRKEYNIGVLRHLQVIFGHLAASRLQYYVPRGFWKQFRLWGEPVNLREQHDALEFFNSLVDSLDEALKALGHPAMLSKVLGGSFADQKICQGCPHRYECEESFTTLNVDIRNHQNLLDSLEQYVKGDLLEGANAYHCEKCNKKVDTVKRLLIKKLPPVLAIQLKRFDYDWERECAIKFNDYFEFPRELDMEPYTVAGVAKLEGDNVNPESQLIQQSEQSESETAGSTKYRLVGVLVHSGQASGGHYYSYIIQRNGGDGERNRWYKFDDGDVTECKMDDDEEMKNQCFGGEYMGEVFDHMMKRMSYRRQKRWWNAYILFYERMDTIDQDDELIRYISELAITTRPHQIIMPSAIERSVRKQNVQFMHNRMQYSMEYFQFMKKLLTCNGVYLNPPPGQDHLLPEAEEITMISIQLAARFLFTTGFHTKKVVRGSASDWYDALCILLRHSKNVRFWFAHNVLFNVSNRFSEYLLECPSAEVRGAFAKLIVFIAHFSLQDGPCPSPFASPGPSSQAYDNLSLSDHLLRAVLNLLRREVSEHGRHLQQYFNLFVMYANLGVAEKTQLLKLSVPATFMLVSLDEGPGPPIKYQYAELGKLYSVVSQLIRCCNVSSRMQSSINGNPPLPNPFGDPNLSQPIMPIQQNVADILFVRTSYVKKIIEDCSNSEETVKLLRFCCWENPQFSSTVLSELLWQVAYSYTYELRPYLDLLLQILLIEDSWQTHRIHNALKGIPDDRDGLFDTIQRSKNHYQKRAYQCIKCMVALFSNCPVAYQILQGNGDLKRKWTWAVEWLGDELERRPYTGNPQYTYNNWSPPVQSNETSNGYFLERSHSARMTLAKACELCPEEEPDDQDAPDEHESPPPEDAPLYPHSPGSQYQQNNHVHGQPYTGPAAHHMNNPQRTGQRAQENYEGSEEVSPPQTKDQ
pIC50: −log10 of the molar value.
readout.type: pIC50

Problem: Given the compound O=S(=O)(c1ccc(-n2ccnc2)cc1)N1Cc2cnc(C(O)c3ccccc3)cc2C1 (stereo unspecified) , what is its reported pIC50?
Solution: < 4.60
